This section presents compounds with their documented IC50 values.
# subjectOfTest: D(2) dopamine receptor (Rattus norvegicus)
# Sequence (P61169 whole entry): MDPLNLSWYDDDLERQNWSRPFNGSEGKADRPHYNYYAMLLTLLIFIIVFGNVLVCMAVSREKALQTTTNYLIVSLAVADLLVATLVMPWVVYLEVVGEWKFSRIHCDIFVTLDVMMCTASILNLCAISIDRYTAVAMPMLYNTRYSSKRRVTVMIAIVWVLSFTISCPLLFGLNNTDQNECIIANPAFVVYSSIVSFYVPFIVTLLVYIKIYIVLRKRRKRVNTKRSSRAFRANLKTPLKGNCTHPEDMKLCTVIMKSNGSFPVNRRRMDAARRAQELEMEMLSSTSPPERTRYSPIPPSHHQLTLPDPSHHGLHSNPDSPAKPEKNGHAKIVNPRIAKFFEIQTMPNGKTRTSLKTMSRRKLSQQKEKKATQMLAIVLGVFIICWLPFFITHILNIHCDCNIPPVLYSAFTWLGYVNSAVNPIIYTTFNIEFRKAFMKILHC
# protocolText: Binding affinity against Dopamine receptor D2 from rat brain corpus striatum membrane
Express your answer in nM, writing the number without its unit.

Below, each entry is followed by its recorded IC50 result.
[
  {
    "structureAsSmiles": "CCCN1CCc2cc(OC)cc3c2[C@H]1Cc1ccc(O)c(O)c1-3",
    "subjectOfTest": "D(2) dopamine receptor (Rattus norvegicus)",
    "IC50, nM": 1.02
  },
  {
    "structureAsSmiles": "CCCN1CCc2cc(N)cc3c2[C@H]1Cc1ccc2c(c1-3)OCO2",
    "subjectOfTest": "D(2) dopamine receptor (Rattus norvegicus)",
    "IC50, nM": 704
  },
  {
    "structureAsSmiles": "CCCN1CCc2cc(F)cc3c2[C@H]1Cc1ccc(O)c(O)c1-3",
    "subjectOfTest": "D(2) dopamine receptor (Rattus norvegicus)",
    "IC50, nM": 0.071
  }
]

`CCCN1CCc2cc(F)cc3c2[C@H]1Cc1ccc2c(c1-3)OCO2` has a reported IC50 of 97.6
